Here's a roundup of pKi values tested on 5-hydroxytryptamine receptor 2C (Homo sapiens), taken from various published works.
// pKi here means minus log10 of the molar concentration (mol/L)

Answered examples (6):
CC1CN(C)c2cccc3c2N1[C@H]1CCN(CCCC(=O)c2ccc(F)cc2)C[C@@H]31 (stereo partly specified)    6.55
COc1ccc(C2=C(C)CN(c3ccc(Cl)c(Cl)c3)C2=O)cc1OCCN1CCCCC1    6.90
OC(c1ccc(F)cc1)C1CCN(CCc2ccccc2I)CC1 (stereo unspecified)    7.54
C[C@@H]1CNC[C@H](C)N1C(=O)OCc1ccccc1    7.08
COc1ccc(C2NCCc3c2[nH]c2ccc(F)cc32)c(O)c1 (stereo unspecified)    7.30
Nc1nc(SCCN2CCN(Cc3cccc(C(F)(F)F)c3)CC2)nc(N)c1Cc1ccccc1O    8.21

Recall the reported pKi of CN1CCN2c3c(cccc31)[C@@H]1CN(CCCOc3ccc(F)cc3)CC[C@@H]12 on 5-hydroxytryptamine receptor 2C (Homo sapiens) and write it down. 6.59

Recall the reported pKi of COc1ccc(CCN(CCCc2ccccc2Cl)CCc2ccc3c(c2)OCO3)cc1OC on 5-hydroxytryptamine receptor 2C (Homo sapiens) and write it down. 7.04

Recall the reported pKi of CN(C)CCCN1c2ccccc2CCc2ccccc21 on 5-hydroxytryptamine receptor 2C (Homo sapiens) and write it down. 6.80

* * *

pKi: −log10 of the molar value.
Here's a roundup of pKi values tested on 5-hydroxytryptamine receptor 2C (Homo sapiens), taken from various published works.

O=C1c2ccccc2S(=O)(=O)N1CCCCN1CCN(c2cccc(C(F)(F)F)c2)CC1    < 5.30
O=S(=O)(c1ccc(/C=C/c2ccccc2F)nc1)c1ccccc1F    < 5.40
N#Cc1cc(F)cc(C#Cc2csc(CF)n2)c1    < 5.00

Recall the reported pKi of CN1CCN2c3c(cccc31)[C@@H]1CN(CCc3cc4c(cc3Cl)NC(=O)C4)CC[C@@H]12 on 5-hydroxytryptamine receptor 2C (Homo sapiens) and write it down. < 6.00

Recall the reported pKi of COc1ccc(-c2ccc(C(=O)N3CCN(C(=O)c4ccc5cc[nH]c5c4)[C@@H](C)C3)cc2)cc1 on 5-hydroxytryptamine receptor 2C (Homo sapiens) and write it down. < 5.00

Recall the reported pKi of Cc1cc(C(=O)N2CCN(CC(=O)c3ccc(F)cc3)CC2)nn1C(C)(C)C on 5-hydroxytryptamine receptor 2C (Homo sapiens) and write it down. < 5.00

Recall the reported pKi of CN(C)C[C@H]1CC2c3ccccc3Sc3ccc(F)cc3[C@H]2O1 (stereo in doubt; 8d) on 5-hydroxytryptamine receptor 2C (Homo sapiens) and write it down. > 9.38

* * *

- study-system: 5-hydroxytryptamine receptor 2C (Homo sapiens, UniProt P28335)
- Sequence (P28335 whole entry): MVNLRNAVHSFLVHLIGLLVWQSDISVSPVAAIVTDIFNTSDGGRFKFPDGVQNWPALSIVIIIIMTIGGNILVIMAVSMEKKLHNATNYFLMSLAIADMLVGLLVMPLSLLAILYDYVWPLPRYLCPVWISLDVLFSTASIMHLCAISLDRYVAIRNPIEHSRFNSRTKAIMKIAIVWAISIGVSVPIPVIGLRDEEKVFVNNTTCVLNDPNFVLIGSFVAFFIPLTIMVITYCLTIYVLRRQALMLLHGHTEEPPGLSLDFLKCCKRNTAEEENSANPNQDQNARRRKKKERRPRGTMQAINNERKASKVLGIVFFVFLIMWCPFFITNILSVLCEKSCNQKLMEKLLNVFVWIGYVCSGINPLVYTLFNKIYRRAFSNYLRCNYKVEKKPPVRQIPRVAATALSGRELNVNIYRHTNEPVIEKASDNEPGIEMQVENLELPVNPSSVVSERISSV
pKi: −log10 of the molar value.
Here's a roundup of pKi values tested on 5-hydroxytryptamine receptor 2C (Homo sapiens, UniProt P28335), taken from various published works.

Answered examples (4):
O=C(Nc1ccc2cnn(S(=O)(=O)c3cccc4ccccc34)c2c1)C1CCCNC1 (racemic)    < 5.70
Fc1ccc(N2CCN(Cc3c[nH]c4ncccc34)CC2)cc1    < 5.00
CC(C)(C)NC(=O)N1OCC2COc3ccccc3C21 (configuration not stated)    < 5.00
O=C1CC(c2ccccc2)CN1c1cnc2c(N3CCNCC3)cccc2c1 (single isomer, unassigned; enantiomer 1)    < 4.52

Tell me measured pKi for Cc1nc2ccc(-c3ccc(Cl)cc3)cc2c(=O)n1C[C@H]1CCCN(C(C)C)C1 please. < 6.00

Tell me measured pKi for O=S(=O)(c1cccc2ccccc12)c1n[nH]c2ccc(N3CCNCC3)cc12 please. < 5.30

Tell me measured pKi for NCCC(=O)Nc1cccc2c1cnn2S(=O)(=O)c1cccc2ccccc12 please. < 5.70

Tell me measured pKi for Cn1ccc2cc(NC(=O)Nc3ccnc4ccccc34)ccc21 please. 7.60

Tell me measured pKi for Cc1cc2c(cc1C(F)(F)F)N(C(=O)Nc1ccc(Oc3cncnc3C)nc1)CC2 please. 8.70

Tell me measured pKi for COc1ccc(N2Cc3c(c4ccc(F)cc4n3C)C2=O)cc1OCCN1CCCCC1 please. 7.90

Tell me measured pKi for O=S(=O)(c1ccc(-n2cccn2)cc1)C1(F)CCN(CCc2ccc(F)cc2F)CC1 please. < 5.40

Tell me measured pKi for CC(=O)Nc1ccc(N2CCC(c3ccc(Cl)c(Cl)c3)C2=O)cc1OCCN1CCCCC1 (configuration not stated) please. 6.50
